Cited source for all entries: ChEMBL document CHEMBL4043249

test system: Human alphaherpesvirus 1; assay: Anti-viral activity against Herpes simplex virus-1 harboring EGFP infected in iPSC-derived neurons assessed as reduction in ICP0 expression treated 2 hrs post infection measured after 72 hrs by Alexa fluor 488 staining based flow cytometric analysis; type: functional
Active and inactive are the calls of the source. The rule behind the calls is not given here.
Give your call using only these classes: TRUE (active), FALSE (inactive)

Please state the recorded outcome for this compound: `O=c1c2ccccc2nc(-c2ccc(OCc3ccccc3)cc2)n1-c1ccc(Br)cc1`
TRUE

Now the compound `COc1ccc(-c2nc3ccccc3c(=O)n2-c2ccc(Br)cc2)cc1`
TRUE

Now the compound `O=c1c2ccccc2nc(-c2ccc(Br)cc2)n1-c1ccc(Br)cc1`
TRUE

Now the compound `COc1ccc(-n2c(-c3ccc(OCc4ccccc4)cc3)nc3ccccc3c2=O)cc1`
TRUE

Now the compound `CCCCCCn1c(-c2ccc(OCc3ccccc3)cc2)nc2ccccc2c1=O`
FALSE

More entries:
Please state the recorded outcome for this compound: `O=c1[nH]c(-c2ccc(OCc3ccccc3)cc2)nc2ccccc12`
FALSE
